// reported LD50 at 24 h per item
Test: Toxicity in ip dosed Mus musculus Swiss-Webster (mouse) assessed as mortality measured after 24 hr
Type: organism-based
Conditions: in vivo

{"Compound": "CC(C)[C@@]1(O)[C@@H](OC(=O)c2ccc[nH]2)[C@@]2(O)[C@@]3(C)C[C@]4(O)O[C@@]5(C(=O)[C@@H](C)CC[C@]35O)[C@@]2(O)[C@]14C [10-KETORYANODINE]", "Measurement Units": "mg/kg", "Bound Type": "=", "LD50 at 24 h": 0.55}
{"Compound": "CC(C)[C@@]1(O)[C@@H](OC(=O)c2ccc[nH]2)[C@@]2(O)[C@@]3(C)C[C@]4(O)O[C@@]5([C@H](O)C6(CC[C@]35O)CO6)[C@@]2(O)[C@]14C (stereo not given in full) [9,21-EPOXYRYANODINE]", "Measurement Units": "mg/kg", "Bound Type": "=", "LD50 at 24 h": 1.5}
{"Compound": "CC1=C(C(C)C)[C@@H](OC(=O)c2ccc[nH]2)[C@@]2(O)[C@@]3(C)CC(=O)O[C@@]4([C@H](O)[C@@H](C)CC[C@]34O)[C@@]12O [ANHYDRORYANODINE]", "Measurement Units": "mg/kg", "Bound Type": ">", "LD50 at 24 h": 20}
{"Compound": "CC1=CC[C@]2(O)[C@]3(C)C[C@]4(O)O[C@@]2(C1=O)[C@]1(O)[C@@]3(O)[C@H](OC(=O)c2ccc[nH]2)[C@](O)(C(C)C)[C@@]14C", "Measurement Units": "mg/kg", "Bound Type": ">", "LD50 at 24 h": 5}
{"Compound": "CC(C)[C@@]1(O)[C@@H](O)[C@@]2(O)[C@@]3(C)C[C@]4(O)O[C@@]5([C@H](O)[C@@H](C)CC[C@]35O)[C@@]2(O)[C@]14C [RYANODOL]", "Measurement Units": "mg/kg", "Bound Type": ">", "LD50 at 24 h": 20}
{"Compound": "CC(C)[C@@]1(O)[C@@H](OC(=O)c2ccc[nH]2)[C@@]2(O)[C@@]3(C)C[C@]4(O)O[C@@]5([C@H](O)[C@@H](C)CC[C@]35O)[C@@]2(O)[C@@]14C [RYANODINE]", "Measurement Units": "mg/kg", "Bound Type": "=", "LD50 at 24 h": 0.1}
{"Compound": "CC(C)[C@@]1(O)[C@@H](OC(=O)c2[nH]c(Br)c(Br)c2Br)[C@@]2(O)[C@@]3(C)C[C@]4(O)O[C@@]5([C@H](O)[C@@H](C)CC[C@]35O)[C@@]2(O)[C@]14C [24,25,26-TRIBROMORYANODINE]", "Measurement Units": "mg/kg", "Bound Type": ">", "LD50 at 24 h": 20}
{"Compound": "CO[C@@]12C[C@@]3(C)[C@@]4(O)CC[C@H](C)[C@@H](O)[C@]4(O1)[C@]1(O)[C@@]3(O)[C@H](OC(=O)c3cccn3C)[C@](O)(C(C)C)[C@]21C", "Measurement Units": "mg/kg", "Bound Type": "=", "LD50 at 24 h": 17}
{"Compound": "CO[C@@]12C[C@@]3(C)[C@@]4(O)CC[C@H](C)[C@@H](O)[C@]4(O1)[C@]1(O)[C@@]3(OC)[C@H](OC(=O)c3cccn3C)[C@](O)(C(C)C)[C@]21C", "Measurement Units": "mg/kg", "Bound Type": ">", "LD50 at 24 h": 20}
{"Compound": "C=C1CC[C@]2(O)[C@]3(C)C[C@]4(O)O[C@@]2([C@@H]1O)[C@]1(O)[C@@]3(O)[C@H](OC(=O)c2ccc[nH]2)[C@](O)(C(C)C)[C@@]14C [DEHYDRORYANODINE]", "Measurement Units": "mg/kg", "Bound Type": "=", "LD50 at 24 h": 0.1}
